The reported measurements were obtained from PubChem BioAssay (NCI).

- Test system: SR leukemia
- measurement_description: NCI-60 one-dose screen, 48 h (100 = growth as untreated, 0 = no growth, -100 = all killed)
- test_conditions: 10 µM unless noted
About 83,000 compounds went through this panel and 20% of them were active in at least one assay; those are over-represented in the sample as a whole.
# label = label 1 if growth >= 80% else label 0

{"compound": "COc1cc(C2=NN(C(C)=O)C(c3ccc(N(C)C)cc3)C2)cc(OC)c1OC (stereo unspecified)", "category": "label 1"}
{"compound": "COc1ccc2cc(Cn3cc[n+](Cc4ccc5ccccc5c4)c3)ccc2c1", "category": "label 0"}
{"compound": "COc1cc2cc(Oc3ccc(NC(=O)Nc4ccccc4)cc3)c(C)nc2cc1OCCN1CCCCC1", "category": "label 0"}
{"compound": "COP(=O)(OC)c1nnn(-c2cccc([N+](=O)[O-])c2)c1C", "category": "label 1"}
{"compound": "Cc1ccc2[nH]c(=O)c3c(c2c1)OC(N)=C(C#N)C31C(=O)c2cccc3cccc1c23 (stereo unspecified)", "category": "label 1"}
{"compound": "CCN1CCN(CC(=O)Nc2nc3ccc(NCc4ccc(Br)cc4)cc3s2)CC1", "category": "label 0"}
{"compound": "CC(C)CSc1oc(-c2ccccc2)nc1S(=O)(=O)c1ccccc1", "category": "label 1"}
{"compound": "O=C(NCc1ccccc1O)c1cccc2ccccc12", "category": "label 0"}
{"compound": "Cc1nn(-c2ccccc2)c(N2CCCCC2)c1/C=N/NC(=O)Cn1c(=O)sc2ccccc21", "category": "label 1"}
{"compound": "Cn1ncc2ccc(-c3nc(-c4ccccc4)[nH]c3-c3n[nH]c(=O)n3C3CC3)cc21", "category": "label 1"}
{"compound": "CCCCC(=O)Nc1ncc(Cc2ccccc2Cl)s1", "category": "label 0"}
{"compound": "CC(C(=O)O)n1c(O)c(C=Nc2cccnc2)sc1=S (stereo unspecified)", "category": "label 1"}
{"compound": "O=C1/C(=C/c2ccccc2[N+](=O)[O-])COc2ccc(O)cc21", "category": "label 0"}
{"compound": "CN1CCN(Cc2cc(NC(=O)c3cccc(C#Cc4cccc5[nH]nc(N)c45)c3)cc(C(F)(F)F)c2)CC1", "category": "label 0"}
{"compound": "COc1cc(Nc2ncccc2NC(=O)c2cn(Cc3cccc(Oc4ccccc4)c3)nn2)cc(OC)c1", "category": "label 0"}
{"compound": "COc1ccc(/C=C/C(=O)c2ccc(Nc3nc(Nc4ccc(F)cc4)nc(Nc4ccc(Cl)cc4)n3)cc2)cc1", "category": "label 0"}
{"compound": "COc1ccc2c(c1)c(-c1nc(-c3cn(C)c4ncccc34)cs1)cn2CCO", "category": "label 0"}
{"compound": "Nc1ncnc2c1c(-c1ccc(Oc3ccccc3)cc1)nn2CC1SSCC1O (stereo unspecified)", "category": "label 0"}
{"compound": "O=C1Nc2ccccc2C2c3cccn3-c3ccccc3N12 (stereo unspecified)", "category": "label 0"}
{"compound": "NC(=S)N/N=C/c1cn(-c2ccccc2)nc1-c1cc2ccccc2oc1=O", "category": "label 0"}

* * *

- Test system: NCI/ADR-RES ovarian
- measurement_description: NCI-60 one-dose screen, 48 h (100 = growth as untreated, 0 = no growth, -100 = all killed)
- test_conditions: 10 µM unless noted
Compounds without any hit were thinned out: in the full panel of roughly 83,000, 20% have a hit. Activity calls are given as the source filed them. Rule for the calls: active = growth percent below 10; inactive = the rest.
Each entry below lists one item and its recorded growth value.
metric_name: growth

{"molecule": "Cc1nc2sc(C(=O)Nc3ccccc3)c(N)c2cc1C(=O)/C=C/c1ccccc1", "metric_name": "growth", "observed_result": "-10.7% (active)"}
{"molecule": "O=C(CSc1nc2ccc([N+](=O)[O-])cc2[nH]1)Nc1ccc(Br)cc1", "metric_name": "growth", "observed_result": "59.3% (inactive)"}
{"molecule": "O=C(O)CCCn1c(SCc2c(Cl)cccc2Cl)nc2ccsc2c1=O", "metric_name": "growth", "observed_result": "4.6% (active)"}
{"molecule": "N#Cc1c(NC(=O)c2cccs2)[n+]([O-])c2ccc(Cl)cc2[n+]1[O-]", "metric_name": "growth", "observed_result": "99.2% (inactive)"}
{"molecule": "CC1(C)CC[C@]2(C(=O)N3CCOCC3)CC[C@]3(C)C(=CC[C@@H]4[C@@]5(C)C/C(=C/c6ccncc6)C(=O)C(C)(C)[C@@H]5CC[C@]43C)[C@@H]2C1", "metric_name": "growth", "observed_result": "26.2% (inactive)"}
{"molecule": "CC1(C)CC[C@]2(C(=O)O)CC[C@]3(C)C(=CC[C@@H]4[C@@]5(C)C[C@@H](Cc6cn([C@@H]7O[C@H](CO)[C@@H](O)[C@H](O)[C@H]7O)nn6)[C@H](O)C(C)(C)[C@@H]5CC[C@]43C)[C@@H]2C1", "metric_name": "growth", "observed_result": "105% (inactive)"}
{"molecule": "COc1ccc2[nH]cc(-c3nc(-c4cn(C)c5ccncc45)cs3)c2c1", "metric_name": "growth", "observed_result": "62.1% (inactive)"}
{"molecule": "C#CC#CC#CC#CC#CC#CC#CC#CCC1OCC(COC(=O)O[C@@H](C(=O)O[C@H]2C[C@@]3(O)[C@@H](OC(=O)c4ccccc4)[C@@H]4[C@]5(OC(C)=O)CO[C@@H]5C[C@H](O)[C@@]4(C)C(=O)[C@H](OC(C)=O)C(=C2C)C3(C)C)[C@@H](NC(=O)c2ccccc2)c2ccccc2)O1 (stereo partly specified)", "metric_name": "growth", "observed_result": "93.5% (inactive)"}
{"molecule": "C[N+](C)(C/C=C/c1ccccc1)Cc1ccccc1", "metric_name": "growth", "observed_result": "99.1% (inactive)"}
{"molecule": "COC1=CC(c2ccc[nH]2)=N/C1=C\\c1[nH]c(C)c(CC(=O)OCc2ccccc2)c1C", "metric_name": "growth", "observed_result": "1.3% (active)"}
{"molecule": "Cn1cc(-c2nc(-c3c[nH]c4ccncc34)cs2)c2cc(Br)ccc21", "metric_name": "growth", "observed_result": "-57.6% (active)"}
{"molecule": "C[C@@H](CO)[C@@H]1CC[C@]2(C(=O)N3CCN(C)CC3)CC[C@]3(C)[C@H](CC[C@@H]4[C@@]5(C)CC[C@H](O)C(C)(C)[C@@H]5CC[C@]43C)[C@@H]12", "metric_name": "growth", "observed_result": "84.5% (inactive)"}
{"molecule": "O=C(CN1CCN(c2cc3c(cc2F)c(=O)c(C(=O)O)cn3C2CC2)CC1)N/N=C/c1ccncc1", "metric_name": "growth", "observed_result": "107% (inactive)"}
{"molecule": "CS(=O)(=O)Nc1cncc(-c2ccc3ncnc(Nc4ccc(F)c(Cl)c4)c3c2)c1", "metric_name": "growth", "observed_result": "84% (inactive)"}
{"molecule": "O=C1/C(=C/c2ccc(C(F)(F)F)cc2)COc2ccc(O)c(O)c21", "metric_name": "growth", "observed_result": "-11.6% (active)"}
{"molecule": "CCCCC(=O)Nc1ncc(Cc2ccccc2Cl)s1", "metric_name": "growth", "observed_result": "23.7% (inactive)"}
